# Tested on: MKN1 cells, pERK
# test.summary: Inhibition of KRas phosphorylation of ERK (Cisbio HTRF Advanced pERK assay)
# Assay type: cell-based
# details: Homo sapiens, MKN-1, 3 h, read-out: Inhibition (HTRF IC50 nM) of KRas-mediated Phosphorylation of ERK, MKN1
Would you mind telling me the reported IC50 of each entry?
Respond numerically; units are nM and should not be typed.

Exam item: Give the value of IC50 reported for the following: CCc1c(F)ccc2cc(O)cc(N3CCc4c(nc(OC[C@@]56CCCN5C[C@H](F)C6)nc4N4C[C@H]5C[C@H](O)C[C@H]5C4)C3)c12
Marked response: 498

Exam item: Give IC50 for the following compound: CCc1c(F)ccc2cc(O)cc(N3CCc4c(nc(OC[C@@]56CCCN5C[C@H](F)C6)nc4N4CCCC(O)(C(F)F)C4)C3)c12 (some centres unmarked)
Marked response: 31

Exam item: Let me know recorded IC50 for CCc1c(F)ccc2cc(O)cc(N3CCc4c(nc(OC[C@@]56CCCN5C[C@H](F)C6)nc4N4CCCn5nc(C(=O)NC(C)C)cc5C4)C3)c12 , thanks.
Marked response: 7

Exam item: Provide measured IC50 value, entry: CCc1c(F)ccc2cc(O)cc(N3CCc4c(nc(OC[C@@]56CCCN5C[C@H](F)C6)nc4N4C[C@H]5CC[C@H](O)[C@H]5C4)C3)c12
Marked response: 1300

Exam item: Please list IC50 recorded for the compound CCc1c(F)ccc2cc(O)cc(N3CCc4c(nc(OC[C@@]56CCCN5C[C@H](F)C6)nc4N4CCCn5nc(C(=O)N(C)C)cc5C4)C3)c12
Marked response: 1

Exam item: Give IC50 for the following compound: CCc1c(F)ccc2cc(O)cc(N3CCc4c(nc(OC[C@@]56CCCN5C[C@H](F)C6)nc4N4CCCn5nc(N)cc5C4)C3)c12
Marked response: 22

Exam item: Supply IC50 value. Item: CCc1c(F)ccc2cc(O)cc(N3CCc4c(nc(OC[C@@]56CCCN5C[C@H](F)C6)nc4N4CCCC5(CNC(=O)N5)C4)C3)c12 (some centres unmarked)
Marked response: 4

Exam item: Look up IC50 of CCc1c(F)ccc2cc(O)cc(N3CCc4c(nc(OC[C@@]56CCCN5C[C@H](F)C6)nc4N4CCCC5(CNC5=O)C4)C3)c12 (some centres unmarked) and report it.
Marked response: 83

Exam item: Dear colleague, please send me the reported IC50 for CN(C)C(=O)c1cc2n(n1)CCCN(c1nc(OC[C@@]34CCCN3C[C@H](F)C4)nc3c1CCN(c1cc(O)cc4ccc(F)c(Cl)c14)C3)C2 when you can.
Marked response: 317

Exam item: Output IC50 of CCc1c(F)ccc2cc(O)cc(N3CCc4c(nc(OCC56CCCN5CCC6)nc4N4CCCn5nc(C(=O)N(C)C)cc5C4)C3)c12
Marked response: 58

Exam item: Give IC50 for CCc1c(F)ccc2cc(O)cc(N3CCc4c(nc(OC[C@@]56CCCN5C[C@H](F)C6)nc4N4CC5C(=O)NC(=O)C5C4)C3)c12 (some centres unmarked)
Marked response: 6

Exam item: Please supply the value of reported IC50 for the item CCc1c(F)ccc2cc(O)cc(N3CCc4c(nc(OC[C@@]56CCCN5C[C@H](F)C6)nc4NCc4c[nH]c5ncccc45)C3)c12
Marked response: 53

Exam item: For O=C1NCC12CCCN(c1nc(OC[C@@]34CCCN3C[C@H](F)C4)nc3c1CCN(c1cc(O)cc4ccc(F)c(Cl)c14)C3)C2 (some centres unmarked) , write its IC50.
Marked response: 929

Exam item: Name the recorded IC50 of the compound listed here: CCc1c(F)ccc2cc(O)cc(N3CCc4c(nc(OCC5(CN(C)C)CC5)nc4N4CCCC5(C4)NC(=O)NC5=O)C3)c12 (centres unmarked)
Marked response: 49

Exam item: For the compound CCc1c(F)ccc2cc(O)cc(N3CCc4c(nc(OC[C@@]56CCCN5C[C@H](F)C6)nc4N4CCCC(n5cccn5)C4)C3)c12 (some centres unmarked) , give its measured IC50 value.
Marked response: 112

Exam item: // fetch IC50 given entry OCC1COCCN(c2nc(OC[C@@]34CCCN3C[C@H](F)C4)nc3c2CCN(c2cc(O)cc4ccc(F)c(Br)c24)C3)C1 (some centres unmarked)
Marked response: 29

Exam item: Given O=S1(=O)NCC2(CCCN(c3nc(OC[C@@]45CCCN4C[C@H](F)C5)nc4c3CCN(c3cc(O)cc5ccc(F)c(Cl)c35)C4)C2)N1 (some centres unmarked) , respond with its IC50.
Marked response: 7

Exam item: Identify IC50 associated with the compound CCc1c(F)ccc2cc(O)cc(N3CCc4c(nc(OC[C@@H]5CCCN5C)nc4N4CCCn5nc(C(=O)N(C)C)cc5C4)C3)c12
Marked response: 185

Exam item: Kindly indicate its recorded IC50. Item: CCc1c(F)ccc2cc(O)cc(N3CCc4c(nc(OC[C@@]56CCCN5C[C@H](F)C6)nc4N4CCCn5nc(C(=O)N(C)C)c(Cl)c5C4)C3)c12
Marked response: 11

Exam item: Note down IC50 recorded for CCc1c(F)ccc2cc(O)cc(N3CCc4c(nc(OC[C@@]56CCCN5C[C@H](F)C6)nc4N4CCCCC(S(C)(=O)=O)C4)C3)c12 (some centres unmarked)
Marked response: 36

Exam item: Give reported IC50 value for CCc1c(F)ccc2cc(O)cc(N3CCc4c(nc(OC[C@@]56CCCN5C[C@H](F)C6)nc4N4CCCn5nc(CO)cc5C4)C3)c12
Marked response: 134

Exam item: // fetch IC50 given entry Oc1cc(N2CCc3c(nc(OC[C@@]45CCCN4C[C@H](F)C5)nc3N3CCOCC(n4cccn4)C3)C2)c2c(Cl)c(F)ccc2c1 (some centres unmarked)
Marked response: 112

Exam item: // Input: CCc1c(F)ccc2cc(O)cc(N3CCc4c(nc(OCC5(CN(C)C)CC5)nc4N4CCCn5nc(C(=O)N(C)C)cc5C4)C3)c12 . Output its IC50 only.
Marked response: 181

----------
# system.under.test: KRas^G13D (Homo sapiens, UniProt P01116, G13D)
# Sequence (P01116 1-169 isoform P01116-2 G13D): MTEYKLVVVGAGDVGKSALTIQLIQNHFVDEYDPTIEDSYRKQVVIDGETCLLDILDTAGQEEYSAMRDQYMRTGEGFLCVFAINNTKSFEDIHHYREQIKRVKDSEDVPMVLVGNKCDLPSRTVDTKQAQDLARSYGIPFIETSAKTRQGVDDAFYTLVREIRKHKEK
# test.summary: biochemical
observable: IC50
Enter the number, and then the unit.

Exam item: // fetch IC50 for CCc1cccc2cccc(N3CCc4c(nc(OCC56CCCN5CCC6)nc4N4CCC(n5ccnn5)CC4)C3)c12 ; system: KRas^G13D (Homo sapiens, UniProt P01116, G13D)
Marked response: 2700 nM

Exam item: Look up and report measured IC50 (KRas^G13D (Homo sapiens, UniProt P01116, G13D)) for the following compound: CCc1cccc2cccc(N3CCc4c(nc(OCC56CCCN5CCC6)nc4N4CC(C)CC(C(N)=O)C4)C3)c12 (stereo not shown)
Marked response: 566 nM

Exam item: // fetch IC50 for CCc1cccc2cccc(N3CCc4c(nc(OCC56CCCN5CCC6)nc4N4CCOCC(n5cncn5)C4)C3)c12 (stereo not shown) ; system: KRas^G13D (Homo sapiens, UniProt P01116, G13D)
Marked response: 176 nM

Exam item: Fill in: IC50 on KRas^G13D (Homo sapiens, UniProt P01116, G13D), entry CCc1cccc2cccc(N3CCc4c(nc(OCC56CCCN5CCC6)nc4N(C)CC4(O)CC4)C3)c12
Marked response: 629 nM

Exam item: Determine reported IC50 for O=C1NC(=O)C2CN(c3nc(OCC45CCCN4CCC5)nc4c3CCN(c3cccc5cccc(Br)c35)C4)CC12 (stereo not shown) ; test system: KRas^G13D (Homo sapiens, UniProt P01116, G13D).
Marked response: 67 nM

Exam item: Give KRas^G13D (Homo sapiens, UniProt P01116, G13D) IC50 for the following compound: CCc1cccc2cccc(N3CCc4c(nc(OCC56CCCN5CCC6)nc4N4CCCC(c5ncc(C)s5)C4)C3)c12 (stereo not shown)
Marked response: 2810 nM

Exam item: Find the measured IC50 of CCc1c(F)ccc2cc(O)cc(N3CCc4c(nc(OC[C@@]56CCCN5C[C@H](F)C6)nc4N4CCC[C@@](C)(O)C4)C3)c12 with KRas^G13D (Homo sapiens, UniProt P01116, G13D) as test system.
Marked response: 52 nM

----------
# system.under.test: KRas^G12D (Homo sapiens, UniProt P01116, G12D)
# Construct: […]; biotin (biotinylated)
# Sequence (P01116 1-169 isoform P01116-2 G12D): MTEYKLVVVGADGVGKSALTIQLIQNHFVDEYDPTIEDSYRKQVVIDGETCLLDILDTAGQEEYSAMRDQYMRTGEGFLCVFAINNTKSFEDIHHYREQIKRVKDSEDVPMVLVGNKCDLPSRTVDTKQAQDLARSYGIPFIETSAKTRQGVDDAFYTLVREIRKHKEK
# test.summary: KRas binding assay (TR-FRET displacement of Cy5 labelled tracer)
pIC50: −log10 of the molar value.
observable: pIC50

Exam item: Look up pIC50 of CCc1c(F)ccc2cc(O)cc(N3CCc4c(nc(OCC5(CN(C)C)CC5)nc4N4CCC[C@@](C)(O)C4)C3)c12 and report it.
Marked response: ≥ 8.70

Exam item: Input CCc1c(F)ccc2cc(O)cc(N3CCc4c(nc(OCC56CCCN5CCC6)nc4N4CCC[C@@](C)(O)C4)C3)c12 , output reported pIC50.
Marked response: ≥ 8.70

Exam item: Recall and state the measured pIC50 for CCc1c(F)ccc2cc(O)cc(N3CCc4c(nc(OC[C@@]56CCCN5C[C@H](F)C6)nc4N4CCCC5(CNC5=O)C4)C3)c12 (some centres unmarked) .
Marked response: ≥ 8.70

Exam item: Could you please provide reported pIC50 for CCc1c(F)ccc2cc(O)cc(N3CCc4c(nc(OC[C@@]56CCCN5C[C@H](F)C6)nc4N4CCCc5nn(C(=O)N(C)C)cc5C4)C3)c12 ? Thanks!
Marked response: ≥ 8.70

Exam item: Assign pIC50 to the following record: CCc1c(F)ccc2cc(O)cc(N3CCc4c(nc(OC[C@@]56CCCN5C[C@H](F)C6)nc4N4CCCC(O)C4)C3)c12 (some centres unmarked)
Marked response: ≥ 8.70

Exam item: Tell me pIC50 reported for Nc1cc2n(n1)CCCN(c1nc(OC[C@@]34CCCN3C[C@H](F)C4)nc3c1CCN(c1cc(O)cc4ccc(F)c(Br)c14)C3)C2
Marked response: ≥ 8.70

Exam item: Answer with the recorded pIC50 of CCc1cccc2cccc(N3CCc4c(nc(OCC56CCCN5CCC6)nc4N4CCCn5nccc5C4)C3)c12 only.
Marked response: 6.51

Exam item: Give pIC50 for OCC1COCCN(c2nc(OC[C@@]34CCCN3C[C@H](F)C4)nc3c2CCN(c2cc(O)cc4ccc(F)c(Cl)c24)C3)C1 (some centres unmarked)
Marked response: 8.30

Exam item: Please report pIC50 for the following compound: CCc1cccc2cccc(N3CCc4c(nc(OCC56CCCN5CCC6)nc4N4CCCC(N5CCCC5=O)C4)C3)c12 (centres unmarked)
Marked response: 5.49

Exam item: Please give the documented pIC50 of CCc1c(F)ccc2cc(O)cc(N3CCc4c(nc(OC[C@@]56CCCN5C[C@H](F)C6)nc4N4CCCn5nc(C(=O)N(C)C)cc5C4)C3)c12
Marked response: ≥ 8.70

Exam item: Report pIC50, nothing else, for this compound: CCc1c(F)ccc2cc(O)cc(N3CCc4c(nc(OC[C@@]56CCCN5C[C@H](F)C6)nc4N4CC5CC(O)CC4C5)C3)c12 (some centres unmarked)
Marked response: 8.15

Reference for the values: patent US12421253B2
